# assay.text: Clearance in iv dosed mouse blood
# Assay type: ADME, organism-based
# test.context: whole blood
quantity.measured: clearance

sample.smiles	quantity.measured	result
N#Cc1cc(S(=O)(=O)Nc2ncns2)ccc1Oc1ccc(-c2cccc(C(F)(F)F)c2)cc1-c1ccnc(CNCCC2CCNCC2)c1	clearance	67.2 mL/min/kg

###

# system: Sodium channel protein type 1 subunit alpha (Homo sapiens)
# assay.text: Inhibition of human Nav1.1 expressed in HEK cells by patch clamp electrophysiology method
# Format: cell-based

sample.smiles	IC50
N#Cc1cc(S(=O)(=O)Nc2ncns2)ccc1Oc1ccc(-c2cccc(C(F)(F)F)c2)cc1-c1ccnc(CNCCC2CCNCC2)c1	309 to 314 nM

###

# system: Cytochrome P450 1A2 (Homo sapiens, UniProt P05177)
# Sequence (P05177 whole entry): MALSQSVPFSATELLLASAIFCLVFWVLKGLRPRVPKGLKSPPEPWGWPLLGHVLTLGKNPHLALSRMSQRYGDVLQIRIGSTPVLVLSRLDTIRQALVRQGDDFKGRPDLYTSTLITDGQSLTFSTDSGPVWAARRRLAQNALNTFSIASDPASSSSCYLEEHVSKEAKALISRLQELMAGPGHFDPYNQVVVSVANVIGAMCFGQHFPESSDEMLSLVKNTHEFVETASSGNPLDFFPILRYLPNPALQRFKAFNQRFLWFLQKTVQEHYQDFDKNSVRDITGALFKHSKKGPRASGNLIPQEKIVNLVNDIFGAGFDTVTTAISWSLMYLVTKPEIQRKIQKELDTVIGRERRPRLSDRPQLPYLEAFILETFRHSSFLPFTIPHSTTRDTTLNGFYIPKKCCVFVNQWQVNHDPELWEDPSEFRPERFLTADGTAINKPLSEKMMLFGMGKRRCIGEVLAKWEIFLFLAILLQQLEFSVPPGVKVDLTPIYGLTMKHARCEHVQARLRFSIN
quantity.measured: IC50

sample.smiles	system	quantity.measured	result
N#Cc1cc(S(=O)(=O)Nc2ncns2)ccc1Oc1ccc(-c2cccc(C(F)(F)F)c2)cc1-c1ccnc(CNCCC2CCNCC2)c1	Cytochrome P450 1A2 (Homo sapiens, UniProt P05177)	IC50	> 30 µM

###

# assay.text: Protein binding in rat plasma assessed as fraction unbound
# Type: ADME, cell-free
quantity.measured: fraction unbound

sample.smiles	quantity.measured	result
N#Cc1cc(S(=O)(=O)Nc2ncns2)ccc1Oc1ccc(-c2cccc(C(F)(F)F)c2)cc1-c1ccnc(CNCCC2CCNCC2)c1	fraction unbound	0.00275

###

# assay.text: Protein binding in mouse plasma assessed as fraction unbound
# Type: ADME, cell-free
quantity.measured: fraction unbound

sample.smiles	quantity.measured	readout.number
N#Cc1cc(S(=O)(=O)Nc2ncns2)ccc1Oc1ccc(-c2cccc(C(F)(F)F)c2)cc1-c1ccnc(CNCCC2CCNCC2)c1	fraction unbound	0.00281

###

# system: Cytochrome P450 2C19 (Homo sapiens, UniProt P33261)
# Sequence (P33261 whole entry): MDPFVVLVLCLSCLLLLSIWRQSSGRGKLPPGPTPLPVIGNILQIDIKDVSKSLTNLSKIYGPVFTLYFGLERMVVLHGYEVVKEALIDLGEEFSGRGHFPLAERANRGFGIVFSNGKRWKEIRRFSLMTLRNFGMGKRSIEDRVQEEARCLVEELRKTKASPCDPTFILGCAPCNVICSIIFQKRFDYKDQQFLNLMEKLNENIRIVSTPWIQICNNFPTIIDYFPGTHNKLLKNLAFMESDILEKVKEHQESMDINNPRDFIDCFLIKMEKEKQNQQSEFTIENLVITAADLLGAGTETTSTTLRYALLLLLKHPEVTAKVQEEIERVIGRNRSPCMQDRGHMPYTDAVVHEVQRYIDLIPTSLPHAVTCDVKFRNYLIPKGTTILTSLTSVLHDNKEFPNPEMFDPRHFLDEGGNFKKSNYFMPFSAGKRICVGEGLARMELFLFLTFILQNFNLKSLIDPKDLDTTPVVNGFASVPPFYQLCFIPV

sample.smiles	system	unit.abbrev	IC50
N#Cc1cc(S(=O)(=O)Nc2ncns2)ccc1Oc1ccc(-c2cccc(C(F)(F)F)c2)cc1-c1ccnc(CNCCC2CCNCC2)c1	Cytochrome P450 2C19 (Homo sapiens, UniProt P33261)	nM	1320

###

# assay.text: Solubility of the compound in aqueous buffer at pH 5.1
# Assay type: physicochemical

sample.smiles	solubility
NCc1cc(-c2cc(-c3cccc(C(F)(F)F)c3)ccc2Oc2cc(F)c(S(=O)(=O)Nc3nncs3)cc2Cl)ccn1	< 0.5 µg/mL
